- subject-of-test: T1, yDcn1^P (potentiating neddylation / PONY domain of Saccharomyces cerevisiae Dcn1) (Saccharomyces cerevisiae, UniProt Q12395 70-269)
- T1 construct: NEDD8 co-E3; Expressed in E. coli
- T1 sequence: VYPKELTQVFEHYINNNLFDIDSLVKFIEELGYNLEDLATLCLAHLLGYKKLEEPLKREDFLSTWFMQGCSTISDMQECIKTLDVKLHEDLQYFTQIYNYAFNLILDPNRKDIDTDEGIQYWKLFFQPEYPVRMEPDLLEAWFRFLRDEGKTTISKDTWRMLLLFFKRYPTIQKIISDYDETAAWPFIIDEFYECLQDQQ
- run-description: ITC, peptide titrated into yDcn1^P
quantity-kind: Kd
The answer should read as a number with its unit following.

Returns the measured Kd for the input binder. Input: Ac-MLKLRQLQKKKQKENENSSSIQPN-NH2 (Synthetic peptide; also called yUbc12^Ac1-24) [Acetyl-yUbc12^1-24 peptide] 444 nM
